# System: HuVec Cells
# PROTOCOL_DESCRIPTION: GFP plasmid transfection with DOTMA/DOPE plus surface ligand peptide, fluorescent plate reader (Example 1)
# Assay type: cell-based
# CONDITION_SET: DOTMA/DOPE + peptide linked to R12 or K16; EF1Alpha eGFP plasmid; 42 hours
Below: a set of entries, each annotated with reported Relative Fluorescence of Transfection of HuVec Cells (RF).
The response must contain the number and no unit.

1) 336 (GEFYFDLRLKGDK) [compound 336] | 5366
2) 234 (YEKPGSPPREVVPRPRPGV) [compound 234] | 13956
3) 359 (KAFDITYVRLKF) [compound 359] | 3024
4) 338 (GTPGPQGIA) [compound 338] | 12000
5) 353 (KKQRFRHRNRKGYRSQ) [compound 353] | 8772
6) 351 (LNRQELFPFG) [compound 351] | 15379

Input line: Query for HuVec Cells: what Relative Fluorescence of Transfection of HuVec Cells (RF) does the record show for 323 (HQQDLGTAGSCLRKFSTMFLF) [compound 323] ?
Output line: 12815

Input line: Query for HuVec Cells: what Relative Fluorescence of Transfection of HuVec Cells (RF) does the record show for 452 (CNYYSNSYSFWLASLNPER) [compound 452] ?
Output line: 1841

Input line: Query for HuVec Cells: what Relative Fluorescence of Transfection of HuVec Cells (RF) does the record show for 355 (FRHRNRKGY) [compound 355] ?
Output line: 14810

Input line: Query for HuVec Cells: what Relative Fluorescence of Transfection of HuVec Cells (RF) does the record show for 348 (HQQDLGTAGSCLRKFSTM) [compound 348] ?
Output line: 21214

Input line: Query for HuVec Cells: what Relative Fluorescence of Transfection of HuVec Cells (RF) does the record show for 354 (SINNTAVMQRLT) [compound 354] ?
Output line: 19284

Input line: Query for HuVec Cells: what Relative Fluorescence of Transfection of HuVec Cells (RF) does the record show for 268 (GGFLKYTVSYDI) [compound 268] ?
Output line: 5403
